Measured pIC50 of individual entries
System: Human Colon Cancer Cell Line (HT-29)
Experiment: Tumor cell proliferation assay (MTT), HT29
Assay type: cell-based
Details: secondary screening, 48 hours
Description: The assay used generally is the blue tetrazolium bromide (MTT) method. […] The amount of formazan can be detected by the microplate reader through the absorption value at 570 nm. […] The assay used generally is the blue tetrazolium bromide (MTT) method. […] Intracellular purple formazan salt crystals can be solved in DMSO and the absorption value at 570 nm is detected by the microplate reader, then the number of living cells can be detected indirectly. […]
FYI, pIC50 means -log10 of a concentration in mol per litre.

Solved entries:
Cc1[nH]c2c(c1C(=O)NCC(O)CN1CCCCC1)CCC/C2=C1/C(=O)Nc2ccc(Cl)cc21 (centres unmarked) [I-75] = 5.29
Cc1[nH]c2c(c1C(=O)NCC(O)CN1CCCCC1)CCC/C2=C1/C(=O)Nc2ccc(F)cc21 (centres unmarked) [I-74] = 6.38
Cc1[nH]c2c(c1C(=O)NCC(O)CN1CCN(C)CC1)CCC/C2=C1/C(=O)Nc2ccc(F)cc21 (centres unmarked) [I-77] = 5.08

The reported pIC50 of the compound CCN(CC)CC(O)CNC(=O)c1c(C)[nH]c2c1CCC/C2=C1/C(=O)Nc2ccc(F)cc21 (centres unmarked) [I-64] was 5.89

Just so you know, measured pIC50 for CCN(CC)CCNC(=O)c1c(C)[nH]c2c1CCC/C2=C1/C(=O)Nc2ccccc21 [I-5] came out at 6.27

---

Measured inhibition at 10 µM by item
test system: Human Non-Small Cell Lung Cancer Cell Line (A549); experiment: Tumor cell proliferation assay (MTT), A549; format: cell-based; details: concentration of 10^−5 mol/L, preliminary screening, 72 hours, read-out: Inhibition rate % A549
Numeric only. Scale: %

CCN(CC)CC(O)CNC(=O)c1c(C)[nH]c2c1CCC/C2=C1/C(=O)Nc2ccccc21 (centres unmarked) [I-63] = 61.8

Reported inhibition at 10 µM for Cc1[nH]c2c(c1C(=O)NCCO)CCC/C2=C1/C(=O)Nc2ccccc21 [I-8] was 0.24

---

test system: Human Gastric Cancer Cell Line (BGC); assay: Tumor cell proliferation assay (MTT), BGC; format: cell-based; conditions: concentration of 10^−5 mol/L, preliminary screening, 72 hours, read-out: Inhibition rate % BGC
# inhibition at 10 µM listing for each entry below
Numeric only. Scale: %

Simply: Cc1[nH]c2c(c1C(=O)NCC(O)CN1CCCCC1)CCC/C2=C1/C(=O)Nc2ccccc21 (centres unmarked) , Human Gastric Cancer Cell Line (BGC), inhibition at 10 µM = 48.8

// inhibition at 10 µM (Human Gastric Cancer Cell Line (BGC)) for Cc1[nH]c2c(c1C(=O)N1CCOCC1)CCC/C2=C1/C(=O)Nc2ccccc21 = 31.9

Hey, Human Gastric Cancer Cell Line (BGC) data for Cc1[nH]c2c(c1C(=O)NCC(O)CN1CCCC1)CCC/C2=C1/C(=O)Nc2ccccc21 (centres unmarked) : inhibition at 10 µM came out at 84.8

Reported Human Gastric Cancer Cell Line (BGC) inhibition at 10 µM for item Cc1[nH]c2c(c1C(=O)NCCN(C)C)CCC/C2=C1/C(=O)Nc2ccc(F)cc21 was 32.3

---

tested on: Human Non-Small Cell Lung Cancer Cell Line (A549); assay: Tumor cell proliferation assay (MTT), A549; type: cell-based; settings: concentration of 10^−5 mol/L, preliminary screening, 72 hours, read-out: Inhibition rate % A549
valueKind: inhibition at 10 µM (%)
Quick reminder: number only, in %, skip the unit.

Cc1[nH]c2c(c1C(=O)NCC(O)CN1CCN(C)CC1)CCC/C2=C1/C(=O)Nc2ccc(Cl)cc21 (stereo not drawn) = 29.9
CCN(CC)CC(O)CNC(=O)c1c(C)[nH]c2c1CCC/C2=C1/C(=O)Nc2ccc(Cl)cc21 (stereo not drawn) = 85

Note to self: inhibition at 10 µM recorded for Cc1[nH]c2c(c1C(=O)NCC(O)CN1CCCCC1)CCC/C2=C1/C(=O)Nc2ccc(Cl)cc21 (stereo not drawn) was 40.1

Summary for this compound, Cc1[nH]c2c(c1C(=O)N1CCOCC1)CCC/C2=C1/C(=O)Nc2ccc(F)cc21 : inhibition at 10 µM is 7.64

Lab note: Cc1[nH]c2c(c1C(=O)NCCO)CCC/C2=C1/C(=O)Nc2ccc(F)cc21 gave inhibition at 10 µM of 16.3

Query Cc1[nH]c2c(c1C(=O)N1CCN(C)CC1)CCC/C2=C1/C(=O)Nc2ccc(F)cc21 yields inhibition at 10 µM of 4.43

Value of inhibition at 10 µM reported for the compound Cc1[nH]c2c(c1C(=O)NCC(O)CN1CCCC1)CCC/C2=C1/C(=O)Nc2ccccc21 (stereo not drawn) is 76.3

Please fill in: inhibition at 10 µM reported for Cc1[nH]c2c(c1C(=O)NCC(O)CN1CCCCC1)CCC/C2=C1/C(=O)Nc2ccccc21 (stereo not drawn) = 2.54

Lookup result for Cc1[nH]c2c(c1C(=O)NCC(O)CN1CCN(C)CC1)CCC/C2=C1/C(=O)Nc2ccc(F)cc21 (stereo not drawn) ; measured inhibition at 10 µM: 50.8

response.value for Cc1[nH]c2c(c1C(=O)NCC(O)CN1CCCCC1)CCC/C2=C1/C(=O)Nc2ccc(F)cc21 (stereo not drawn) (field: inhibition at 10 µM) = 1.27

# compound CCN(CC)CCNC(=O)c1c(C)[nH]c2c1CCC/C2=C1/C(=O)Nc2ccccc21 ; its inhibition at 10 µM = 6.71

inhibition at 10 µM reported for this compound Cc1[nH]c2c(c1C(=O)NCC(O)CN1CCOCC1)CCC/C2=C1/C(=O)Nc2ccc(Cl)cc21 (stereo not drawn) : 18.9

---

test system: Human Gastric Cancer Cell Line (BGC); experiment: Tumor cell proliferation assay (MTT), BGC; format: cell-based; conditions: concentration of 10^−5 mol/L, preliminary screening, 72 hours, read-out: Inhibition rate % BGC
valueKind: inhibition at 10 µM (%)
Use % as the unit, but write only the number.

Below: 9 compounds and their reported inhibition at 10 µM.
CCN(CC)CCNC(=O)c1c(C)[nH]c2c1CCC/C2=C1/C(=O)Nc2ccc(F)cc21 [I-2] = 71
Cc1[nH]c2c(c1C(=O)NCC(O)CN1CCN(C)CC1)CCC/C2=C1/C(=O)Nc2ccc(F)cc21 (stereo not shown) [I-77] = 84.2
Cc1[nH]c2c(c1C(=O)NCCO)CCC/C2=C1/C(=O)Nc2ccccc21 [I-8] = 47
CCN(CC)CC(O)CNC(=O)c1c(C)[nH]c2c1CCC/C2=C1/C(=O)Nc2ccccc21 (stereo not shown) [I-63] = 80.8
Cc1[nH]c2c(c1C(=O)N1CCN(C)CC1)CCC/C2=C1/C(=O)Nc2ccc(F)cc21 [I-14] = 39.4
Cc1[nH]c2c(c1C(=O)NCC(O)CN1CCCCC1)CCC/C2=C1/C(=O)Nc2ccc(F)cc21 (stereo not shown) [I-74] = 60.2
Cc1ccc2c(c1)/C(=C1\CCCc3c1[nH]c(C)c3C(=O)NCC(O)CN(C)C1CCCCC1)C(=O)N2 (stereo not shown) [I-79] = 81
Cc1[nH]c2c(c1C(=O)N1CCN(C)CC1)CCC/C2=C1/C(=O)Nc2ccccc21 [I-13] = 11.1
Cc1[nH]c2c(c1C(=O)NCC(O)CN(C)C)CCC/C2=C1/C(=O)Nc2ccc(F)cc21 (stereo not shown) [I-66] = 76.8

Now let's try a different one.
So for CCN(CC)CCNC(=O)c1c(C)[nH]c2c1CCC/C2=C1/C(=O)Nc2ccccc21 [I-5] , the logged inhibition at 10 µM turned out to be 64
